# Protocol text: Toxicity liver stage against HepG2, at 10uM
# Assay type: cell-based
# Parameters: test concentration 10 uM, cell line HepG2-A16-CD81EGFP
# Reported conditions: human, HepG2-A16-CD81EGFP cells; read-out: INHIBITION
Measurement kind: cytotoxicity at 10 µM (%)
One number for each entry, in %.

Worked examples, 5 molecules total:
> print(dat)
                                   molecule  readout.units  numeric.readout
1  CC(C)Nc1nc2c(c(NC3CC3)n1)CN(C(=O)c1ccsc1)CC2              %            -27.2
2  COCCN(C)CC(=O)N1C[C@@H](C)[C@](O)(C(C)C)C1              %              4.9
3  CCN(C(=O)c1nc2c(s1)CCCN2c1ccc(C)nn1)C(C)C              %             3.86
4  CCC(CO)n1cnc2scc(C)c2c1=O (centres undefined)              %            -7.37
5  Cc1nnsc1CN1C[C@@H]2CC[C@H]1CN(Cc1ccccn1)C2              %            -3.56

Quick request: cytotoxicity at 10 µM for each listed item, please.
1. COC(=O)c1ccc(N2CCN(C(=O)CC(F)(F)F)C(C)C2)cc1 (centres undefined)
2. CC(NC(=O)N1CCN(c2cccs2)CC1)c1ccncc1 (centres undefined)
3. CCOc1cc(CNC(=O)CNC(=O)CC2CCCCC2)ccn1
4. CC(C)COCC(NC(=O)c1cc[nH]n1)c1ccco1 (centres undefined)
5. O=C1OCCC1N1CCN(C(=O)Cc2ccccc2Cl)CC1 (centres undefined)
6. COCCCN(Cc1ccc(F)cc1Cl)C1CCS(=O)(=O)C1 (centres undefined)
7. CCN(CC)c1ncc(S(=O)(=O)c2cccc(C)c2)c(N)n1
8. Cc1cc(C2CCCN2Cc2cc(=O)n(C)c(=O)n2C)no1 (centres undefined)

Data returned:
4.42
15.8
6.81
-4.72
-9.2
13.7
-0.707
-20.6

====

# Protocol text: Toxicity liver stage against HepG2, at 10uM
# Assay type: cell-based
# Set-up: test concentration 10 uM, cell line HepG2-A16-CD81EGFP
# Reported conditions: human, HepG2-A16-CD81EGFP cells; read-out: INHIBITION
Assignment: determine reported cytotoxicity at 10 µM for the given compounds.
Give bare numbers, in %.

Worked examples, 5 compounds total:
> print(dat)
                                   compound  readout.units  numeric.readout
1      c1cc(-c2noc(C3CCC3)n2)cc(N2CCCCC2)n1              %            -1.39
2  CCCOCC(=O)NC1CCc2nc(C)cn2C1 (stereo not given)              %            -2.88
3  COCCN(C)C[C@@H]1CN(c2cc(C)nc3ccccc23)C[C@@H]1CO              %            -1.92
4  OCC1CCCCN1Cc1nc(Cc2cccc(F)c2)no1 (stereo not given)              %             -137
5      c1ccc(CN2CCc3ncnc(-c4ccoc4)c3CC2)nc1              %              -79

Quick request: cytotoxicity at 10 µM for each listed item, please.
1. COCC(=O)NCC1CCC(c2ccnc3ncnn23)CC1 (stereo not given)
2. CCn1c(C2CCN(C(=O)c3cc(CC(C)C)on3)CC2)nn(C)c1=O
3. Cc1nc[nH]c1CN1CCN(C2CCOCC2)CC(C(N)=O)C1 (stereo not given)
4. Cc1cncc(C2CCCN2CCO)n1 (stereo not given)
5. Cc1noc(C)c1CN1CCOC2(CCCN(c3ncccn3)C2)C1 (stereo not given)

Data returned:
1: 1.36; 2: -3.89; 3: -19.5; 4: -3.14; 5: 8.27

====

# Protocol text: Toxicity liver stage against HepG2, at 10uM
# Type: cell-based
# Design: test concentration 10 uM, cell line HepG2-A16-CD81EGFP
# Reported conditions: human, HepG2-A16-CD81EGFP cells; read-out: INHIBITION
Assignment: determine reported cytotoxicity at 10 µM for the given molecules.
Show the value, then the unit it is measured in.

Worked examples, 5 molecules total:
> print(dat)
                                   molecule  result
1  O=C(CCC1CCCN(S(=O)(=O)C2CC2)C1)Nc1ccc(Cl)cc1 (centres undefined)   3.69%
2  CC(C)N1CCC2(CCCN(Cc3ccc(F)cc3)C2=O)C1 (centres undefined)  -28.7%
3  Cc1cnn(C2CCCN(C(=O)c3cccc(-n4cnnn4)c3)C2)c1 (centres undefined)  -8.77%
4  CC[C@@]1(O)CCN(C(=O)c2ccc(-n3cnnc3)cc2)C[C@H]1O   3.86%
5  COc1cc(C)sc1C(=O)N1CCCC(n2nc(C)nc2C)C1 (centres undefined)  -13.6%

Quick request: cytotoxicity at 10 µM for each listed item, please.
1. Cc1ccc(C)c(OCCN2CCC(N3CCNC3=O)CC2)c1
2. CC(C)NC(=O)[C@@H]1CN(C(=O)C2CC2)C[C@]12Cc1ccccc1C(=O)N2

Data returned:
["1.85%", "1.48%"]

Quick request: cytotoxicity at 10 µM for each listed item, please.
1. CN(Cc1cc(C(C)(C)C)n[nH]1)C(=O)c1ccccc1C1CCNC1 (centres undefined)
2. CC(O)CN1CC(C)(C)CN(C(=O)CCc2ccccc2)CC1=O (centres undefined)
3. O=C(Cn1ccc2c(Cl)cccc21)N[C@@H](C(=O)O)c1ccccc1
4. N#Cc1ccccc1CN1C[C@H]2CC[C@@H](C1)N(CC1CC1)C2=O
5. Cc1cnn(Cc2cc(F)ccc2F)c1NC(=O)CNC(=O)C1CC1

Data returned:
1. -2.32%
2. -0.321%
3. 2.19%
4. -11.4%
5. 2.3%

Quick request: cytotoxicity at 10 µM for each listed item, please.
1. CC(=O)N1CCN(C(C)C)CC(COc2ccccc2)C1 (centres undefined)
2. O=C1NCCN1C1CCN(CC(O)c2ccccc2F)CC1 (centres undefined)
3. CC(CNC(=O)c1cc(N2CCNC2=O)ccc1F)c1ccccc1 (centres undefined)
4. Cc1cc(C)n(CCN(C)Cc2c[nH]nc2-c2ccc3c(c2)OCO3)n1

Data returned:
-28.8%
-0.535%
-2.1%
0.562%

====

Assignment: determine reported cytotoxicity at 10 µM for the given molecules.
# Protocol text: Toxicity liver stage against HepG2, at 10uM
# Format: cell-based
# Parameters: test concentration 10 uM, cell line HepG2-A16-CD81EGFP
# Reported conditions: human, HepG2-A16-CD81EGFP cells; read-out: INHIBITION
Give bare numbers, in %.

> print(dat)
                                   molecule  numeric.readout
1  CN(Cc1ccco1)[C@@H]1CN(Cc2cccnc2)[C@@H]2CCCO[C@H]12            -79.8
2     CC(=O)c1ccc(CNC(=O)c2cc(C#N)cn2C)nc1C             5.44
3  c1cncc(-c2ccc3c(c2)C2(CC3)CCN(c3nncs3)CC2)c1             13.1
4     COc1cccn(CC(=O)N2CCCC3(CCCCC3)C2)c1=O            -1.29
5  Cc1cccc(N2CCN(C(=O)c3c(C)nn(C)c3C)CC2)c1C            -7.28

Quick request: cytotoxicity at 10 µM for each listed item, please.
1. CN1C(=O)C2(CCN(S(C)(=O)=O)CC2)c2cc(F)ccc21
2. CCC(C)N(C)C(=O)Nc1ccc(N2CCSCC2)cc1C (configuration not stated)

Data returned:
1. -106
2. -12.5

====

# Protocol text: Toxicity liver stage against HepG2, at 10uM
# Format: cell-based
# Parameters: test concentration 10 uM, cell line HepG2-A16-CD81EGFP
# Reported conditions: human, HepG2-A16-CD81EGFP cells; read-out: INHIBITION
Measurement kind: cytotoxicity at 10 µM (%)
One number for each entry, in %.

Worked examples, 2 molecules total:
> print(dat)
                                   molecule  numeric.readout
1  O=C(N[C@H]1CN(c2nc(CO)cs2)C[C@@H]1C1CC1)C1CCCCC1           -0.464
2  Cc1ncc2c(c1CNC(=O)C1(C)CCCO1)CCNC2 (stereo unspecified)            -45.6

Quick request: cytotoxicity at 10 µM for each listed item, please.
1. CC1Cc2ccccc2N1C(=O)Cn1nc(-c2cccs2)ccc1=O (stereo unspecified)
2. CO[C@@H]1CCN(S(=O)(=O)c2cccs2)[C@H]1Cc1cccnc1
3. Cc1ccc(C(=O)N2CCc3ncnc(-c4cnn(C)c4)c3CC2)cn1
4. Cc1ccc(F)c(C(=O)N2CCC(Nc3ccc(C)nn3)CC2)c1
5. CC(C)(C)CNC(=O)c1ccc(C(=O)O)cc1

Data returned:
1: -9.08; 2: -80.3; 3: 7.83; 4: -3.78; 5: -8.17

Quick request: cytotoxicity at 10 µM for each listed item, please.
1. Cc1cnn(CC2CN(Cc3nc(-c4ccsc4)no3)CCO2)c1 (stereo unspecified)
2. CCc1ocnc1C(=O)N1CCOCC1CC(=O)c1ccccc1 (stereo unspecified)
3. O=C(NCc1cccnc1N1CCCCC1)c1cccs1
4. COCCC1(CNC(=O)Nc2ccnc(C)c2)CCCC1
5. COc1ccc(CN2CCCC2c2cccc(F)c2)c(OC)c1OC (stereo unspecified)
6. Cn1cc(NC(=O)N2CCC(CN3CCCC3)CC2)ccc1=O
7. CN(Cc1ccco1)C(=O)CN1CCCC1Cn1cccn1 (stereo unspecified)
8. COc1ccccc1CN1CCC2(CCC(C(=O)N(C)C)O2)CC1 (stereo unspecified)

Data returned:
-9.74
5.92
-4.43
2.12
3.48
-11.5
1.55
0.493

Quick request: cytotoxicity at 10 µM for each listed item, please.
1. CCCNC(=O)C(C)Nc1ccn(Cc2ccccn2)n1 (stereo unspecified)
2. CC(=O)N1CCCc2sc(C(=O)Nc3ccc(C)nc3)nc21
3. COCC(=O)N[C@H](C(=O)NC(C)c1cccc(C)c1C)C(C)C (stereo partly specified)
4. O=C(c1ccccc1F)N1CC(c2nc(C3CC3)no2)C1

Data returned:
-5.95
7.46
5.38
-0.478

Quick request: cytotoxicity at 10 µM for each listed item, please.
1. Cc1nc(N)cc(C2CCN2CCC(N)=O)n1 (stereo unspecified)
2. CC(C)[C@H](N)CC(=O)Nc1nc(-c2cnc(N3CCOCC3)nc2)cs1
3. CC(C)[C@H]1CN(S(=O)(=O)c2cccnc2)C[C@@H]1N
4. Cc1ccc(C(C)NC(=O)CCc2cnn(C)c2)cc1F (stereo unspecified)
5. COC(=O)c1cnc2c(c(C)nn2C)c1OC

Data returned:
1. -1.21
2. -9.8
3. 1.31
4. -0.348
5. 0.822
